system: human MDR1; assay: Efflux ratio of apparent permeability from basolateral to apical side over apical to basolateral side in MDCK cells transfected with human MDR1 at 2 uM; assay type: ADME, cell-based, Canis lupus familiaris; conditions: dog
Reported Metric: efflux ratio at 2 µM

Examples with answers:
## Input Item CC(C)S(=O)(=O)NCC1CC(c2ccc(-c3cccnc3)c(F)c2)=NO1 (racemic) has what recorded efflux ratio at 2 µM?
## Output 0.84

## Input Which efflux ratio at 2 µM is listed for CC(C)S(=O)(=O)NCC1CC(c2ccc(-c3ccccc3C#N)c(F)c2)=NO1 (racemic) ?
## Output 1.16

## Input Find the recorded efflux ratio at 2 µM belonging to CC(C)S(=O)(=O)NC[C@@H]1CC(c2ccc(-c3ccccc3C#N)c(F)c2)=NO1 and report it.
## Output 1.18

## Input I'd like to know its efflux ratio at 2 µM. The compound in question is CC(C)S(=O)(=O)NC[C@@H]1CC(c2ccc(N3CCCC3)c(F)c2)=NO1
## Output 1.45

## Input State the recorded efflux ratio at 2 µM for this entry: CC(C)S(=O)(=O)NC[C@H]1CC(c2ccc(N3CCCC3)c(F)c2)=NO1
## Output 1.6

P = CC(C)S(=O)(=O)NCC1CC(c2ccc(-c3ccc(C#N)cc3)c(F)c2)=NO1 (racemic)
Q = CC(=O)N[C@H]1CCN(c2ccc(C3=NO[C@H](CNS(=O)(=O)C(C)C)C3)cc2F)C1
R = CC(C)S(=O)(=O)NCC1CC(c2ccc(N3CCCC3)cc2)=NO1 (racemic)
## Input Arrange by efflux ratio at 2 µM, high to low. # the answer lists labels in the order requested
## Output Q, P, R

// provenance: ChEMBL document CHEMBL3108690
